Tested on: KM12
procedure_text: NCI tumour cell line growth inhibition, 48 h
Activity calls are given as the source filed them. Rule as the data show it: active = GI50 up to about 1.1 µM and inactive = higher.
Outcomes: true (active), false (inactive)

compound: CCN(CC)CCN(C)c1ccc(CO)c2c1c(=O)c1ccccc1[s+]2[O-] (centres undefined)
qualitative_label: false

compound: Cc1nc2c(=O)n(C)ncc2[nH]1
qualitative_label: false

compound: CC(=O)OC1C(COC(N)=O)OC(n2c(-c3ccc(C)cc3)cc(-c3ccccc3)c(C#N)c2=O)C(OC(C)=O)C1OC(C)=O (centres undefined)
qualitative_label: false

compound: O=C(Nc1ccn(C2CC(O)C(CO)O2)c(=O)n1)c1ccccc1 (centres undefined)
qualitative_label: false

compound: O=c1n(CC2CO2)c(=O)n(CC2CO2)c(=O)n1CC1CO1 (centres undefined)
qualitative_label: false

compound: CC(C)C1CO[C@]2(C)CCC(=O)N12 (some centres undefined)
qualitative_label: false

compound: COc1c2c(cc3c1OCO3)C13C=CC(OC)CC1N(CC3)C2.[O-][Cl+3]([O-])([O-])O (centres undefined)
qualitative_label: false

compound: CC(C)(C(=O)N(C(=O)N1CCN(c2ccccc2)CC1)S(=O)(=O)c1ccccc1)c1ccc(Cl)cc1
qualitative_label: false

compound: Oc1nc2c(c(-c3ccc(F)cc3)n1)COC/C2=C\c1ccc(F)cc1
qualitative_label: false

compound: O=C(O)COc1cc(-c2ccccc2)nc2cc(F)ccc12
qualitative_label: false

compound: O=C(/C=C/c1ccc(Cl)c(Cl)c1)c1ccc(F)cc1
qualitative_label: false

compound: COc1cc(CCc2ccc(OCCN(C)C)cc2)cc(OC)c1OC
qualitative_label: false

compound: C1CN2CCN3CCN4CCN1[PH]243
qualitative_label: false

compound: O=C1C2C3C=CC(C2C(=O)N1CN1CCSCC1)C1C2C(=O)N(CN4CCSCC4)C(=O)C2C31 (centres undefined)
qualitative_label: false

compound: CCCCCC(=O)OCC(=O)[C@H]1[C@H](C)C[C@H]2[C@@H]3C[C@H](F)C4=C/C(=N/OC(=O)c5cccc6c(=O)c7ccccc7[nH]c56)C=C[C@]4(C)[C@H]3[C@@H](O)C[C@@]21C
qualitative_label: false

compound: CCCCOC(=O)NC(c1ccccc1)C(O)C(=O)OC1C[C@@]2(O)C(OC(=O)c3ccccc3)C3[C@](C)(C(=O)[C@H](OC(C)=O)C(=C1C)C2(C)C)[C@@H](O)C[C@H]1OC[C@@]31OC(C)=O (some centres undefined)
qualitative_label: true

compound: O=C(Cn1ccnc1[N+](=O)[O-])NCc1ccc(F)cc1
qualitative_label: false

compound: COC(=O)C1=C(C)NC(=O)N2[C@@H](CCOCc3ccccc3)CC[C@@H]12
qualitative_label: false

compound: C/C(=N\NC(=S)N1CCC(N2CCCCC2)CC1)c1ccccn1
qualitative_label: false

* * *

Test system: LOX IMVI
procedure_text: NCI tumour cell line growth inhibition, 48 h
Calls of active or inactive are those of the source. Cut-off read from the data, not from the text of the source: active = GI50 up to about 1.1 µM and inactive = higher.
Outcomes: True (active), False (inactive)

structure_notation: [N-]=[N+]=CC(=O)C1(C(=O)C=[N+]=[N-])CC1
qualitative_label: False
--
structure_notation: N#CCN(Cc1ccccc1)[C@@H]1CCC[C@]1(O)C#Cc1ccc2c(c1)OCO2
qualitative_label: False
--
structure_notation: Cc1nc(O)nc2nc3ccc(Cl)cc3c(NC(C)(CO)CO)c12
qualitative_label: False
--
structure_notation: c1ccc2c(c1)c1c(n2CCOCCN2CCCCC2)CCCC1
qualitative_label: False
--
structure_notation: O=c1ccn2n1Cc1ccccc1C2
qualitative_label: False
--
structure_notation: CCOC(=O)c1cc(=O)c2ccnc3c2n1CCS3
qualitative_label: False
--
structure_notation: O=[N+]([O-])c1cccc2nc3ccccc3c(NCCCN3CCCCC3)c12
qualitative_label: True
--
structure_notation: CCCC(=O)n1[nH]c(=O)n(-c2ccc(Cl)cc2)c1=O
qualitative_label: False

* * *

System: UACC-257
procedure_text: NCI tumour cell line growth inhibition, 48 h
Calls of active or inactive are those of the source. Rule as the data show it: active = GI50 up to about 1.1 µM and inactive = higher.
Listed compounds paired with reported GI50

compound: COc1ccc(-c2cc(-c3ccccc3)c(C#N)c(=O)[nH]2)cc1
GI50: > 100 µM (inactive)
--
compound: COc1ccc(CNC(C)C(=O)O)cc1 (stereo unspecified)
GI50: > 100 µM (inactive)
--
compound: CN(C(=O)OC(C)(C)C)[C@H]1CCCC[C@H]1N1CCCC1
GI50: 53.7 µM (inactive)
--
compound: CCSc1n/c(=C\c2ccco2)c2nnnn12
GI50: > 100 µM (inactive)
--
compound: CC(C)(C)n1nc(C2CC2)cc1NC(=O)Nc1ccc(Cl)cc1
GI50: > 100 µM (inactive)
--
compound: C/C(=C/C(=O)N(C)c1ccccc1Cl)O[Si](C(C)C)(C(C)C)C(C)C
GI50: 24.8 µM (inactive)
--
compound: O=C1NC(N2CCCCC2)=N/C1=C\c1ccc(Cl)cc1
GI50: 36.6 µM (inactive)
--
compound: S=c1[nH]nc(COc2ccc3c(c2)CCCC3)n1/N=C/c1ccc(Cl)cc1
GI50: 22.6 µM (inactive)
--
compound: C=CCNC(=S)N/C=C1\C(=O)Oc2ccccc2C1=O
GI50: > 100 µM (inactive)
--
compound: COC(=O)c1ccc(OCc2ccc3oc(=O)c(-c4ccccc4)nc3c2)cc1
GI50: > 100 µM (inactive)
--
compound: COc1c(C)c(OC)c(C(=O)CC(C)C)c(OC)c1C
GI50: > 100 µM (inactive)

* * *

Listed compounds paired with reported GI50
Test system: A549
procedure_text: NCI tumour cell line growth inhibition, 48 h
Active and inactive are the calls of the source. No stated cut-off is given here; in the data, active = GI50 up to about 1.1 µM and inactive = higher.

compound: c1ccc(CN[C@]23C4C5CC6C7C5C2C7[C@@](NCc2ccccc2)(C64)N3Cc2ccccc2)cc1 (stereo not given in full)
measurement_target: A549
GI50: > 100 µM (inactive)
--
compound: CC(=O)OC1CC(O)CC2=CCC3C4CCC(C(C)(O)C(O)CC5COC(=O)C5C)C4(C)CCC3C21C (stereo not given)
measurement_target: A549
GI50: > 25 µM (inactive)
--
compound: COc1c2c(cc3c1OCO3)C13C=CC(OC)CC1N(CC3)C2.[O-][Cl+3]([O-])([O-])O (stereo not given)
measurement_target: A549
GI50: > 100 µM (inactive)
--
compound: CCOC(=O)C(C(=O)OCC)=C1C=C(c2ccccc2)c2ccccc21
measurement_target: A549
GI50: 79.3 µM (inactive)
--
compound: CC1C(O)=C(O)c2ccccc2N1O (stereo not given)
measurement_target: A549
GI50: > 100 µM (inactive)

* * *

Tested on: PC-3
procedure_text: NCI tumour cell line growth inhibition, 48 h
Activity calls are given as the source filed them. Cut-off read from the data, not from the text of the source: active = GI50 up to about 1.1 µM and inactive = higher.
Listed compounds paired with reported GI50

compound: O=C1C(Cl)=C(NCCN2CCOCC2)C(=O)c2c(O)ccc(O)c21
measurement_target: PC-3
GI50: 2.2 µM (inactive)
--
compound: S=c1[nH]nc(COc2ccc3c(c2)CCCC3)n1/N=C/c1ccc(Cl)cc1
measurement_target: PC-3
GI50: 14.9 µM (inactive)
--
compound: c1ccc(CN[C@]23C4C5CC6C7C5C2C7[C@@](NCc2ccccc2)(C64)N3Cc2ccccc2)cc1 (stereo not given in full)
measurement_target: PC-3
GI50: > 100 µM (inactive)
--
compound: CCCCCCCCCCCCCCCCOCC(CCl)OP(=O)(O)OP(=O)(O)OCC1OC(n2ccc(N)nc2=O)C(O)C1O (stereo not given)
measurement_target: PC-3
GI50: 87.7 µM (inactive)
--
compound: O=C1c2ccccc2/C(=N\c2ccc3ccccc3c2)C1(C1=C(c2ccccc2)/C(=N/c2ccc3ccccc3c2)c2ccccc21)c1ccccc1 (stereo not given)
measurement_target: PC-3
GI50: 4.41 µM (inactive)

* * *

System: OVCAR-8
procedure_text: NCI tumour cell line growth inhibition, 48 h
The source made the active and inactive calls. Rule as the data show it: active = GI50 up to about 1.1 µM and inactive = higher.
Outcomes: active, inactive

compound: CCCCCC(=O)OCC(=O)[C@H]1[C@H](C)C[C@H]2[C@@H]3C[C@H](F)C4=C/C(=N/OC(=O)c5cccc6c(=O)c7ccccc7[nH]c56)C=C[C@]4(C)[C@H]3[C@@H](O)C[C@@]21C
measurement_target: OVCAR-8
qualitative_label: inactive
//
compound: CS(=O)(=O)OCC(CCl)(CCl)CCl
measurement_target: OVCAR-8
qualitative_label: inactive
//
compound: CCCCOC(=O)NC(c1ccccc1)C(O)C(=O)OC1C[C@@]2(O)C(OC(=O)c3ccccc3)C3[C@](C)(C(=O)[C@H](OC(C)=O)C(=C1C)C2(C)C)[C@@H](O)C[C@H]1OC[C@@]31OC(C)=O (stereo not given in full)
measurement_target: OVCAR-8
qualitative_label: active
//
compound: O=C(O)c1cc2cc(c1)/N=C/c1ccccc1OCc1cccc(n1)COc1ccccc1/C=N/2
measurement_target: OVCAR-8
qualitative_label: inactive
//
compound: COc1ccc(C2=C(N)c3ncccc3C2=O)cc1
measurement_target: OVCAR-8
qualitative_label: inactive
//
compound: CC(C)C(Nc1c2ccccc2[n+]([O-])c2ccccc12)C(=O)O (stereo not given)
measurement_target: OVCAR-8
qualitative_label: inactive
//
compound: CC1=C2CC(C)(C)/C=C\C(=O)/C(C)=C\C3=C[C@H](C)C[C@]3(O2)C1=O
measurement_target: OVCAR-8
qualitative_label: active
//
compound: CCCCCCCCCCOc1ccc(/N=N/c2nnc(-c3ccc(OCCCCC)cc3)s2)cc1
measurement_target: OVCAR-8
qualitative_label: inactive
//
compound: CN(C)Cc1cc(/C=C/C(=O)c2ccc(Cl)c(Cl)c2)cc(CN(C)C)c1O
measurement_target: OVCAR-8
qualitative_label: inactive
//
compound: CCCCCCCCCCCCCCCCCc1cccc(OCOCCOC)c1CO
measurement_target: OVCAR-8
qualitative_label: inactive
//
compound: CC(=O)O[C@H]1C(=O)[C@@]2(C)[C@H]([C@H](OC(=O)c3ccc([N+](=O)[O-])cc3)[C@]3(O)C[C@H](OC(=O)[C@H](O)[C@@H](NC(=O)c4ccccc4)c4ccccc4)C(C)=C1C3(C)C)[C@]1(OC(C)=O)CO[C@@H]1C[C@@H]2O
measurement_target: OVCAR-8
qualitative_label: inactive
//
compound: C=C(CO)CC(/C=C(\C)CC/C=C(\C)CCl)OC(C)=O (stereo not given)
measurement_target: OVCAR-8
qualitative_label: inactive
//
compound: O=c1c2cc([N+](=O)[O-])ccc2n2n1CCCC2
measurement_target: OVCAR-8
qualitative_label: inactive
//
compound: COc1ccc(COC(=O)NNC(=O)C2CSC(c3ccccc3)N2C(C)=O)cc1 (stereo not given)
measurement_target: OVCAR-8
qualitative_label: inactive
//
compound: Nc1c(C(=O)Nc2ccccc2)[n+]([O-])c2ccccc2[n+]1[O-]
measurement_target: OVCAR-8
qualitative_label: inactive
//
compound: CN(C)CCNC(=O)c1cccc2nc3c(ccc4ccccc43)nc12
measurement_target: OVCAR-8
qualitative_label: inactive
//
compound: CCN(CC)C1CCC(C2c3cc4c(cc3OC(N3CCOCC3)C2C)OCO4)CC1 (stereo not given)
measurement_target: OVCAR-8
qualitative_label: inactive
//
compound: Cn1cnc2nc(Cl)nc(NC(C)(C)C(C)(C)O)c21
measurement_target: OVCAR-8
qualitative_label: inactive
//
compound: BrC1(c2ccccc2)C[n+]2c(-c3ccccc3)cc(-c3ccccc3)cc2-c2ccccc21 (stereo not given)
measurement_target: OVCAR-8
qualitative_label: active
//
compound: COc1ncc(C#CC(=O)c2ccccc2OC)c(OC)n1
measurement_target: OVCAR-8
qualitative_label: inactive
//
compound: Cc1ccc(S(=O)(=O)c2c(O)c3ccccc3n(C)c2=O)cc1
measurement_target: OVCAR-8
qualitative_label: inactive
//
compound: Cn1c2c([N+](=O)[O-])[se]nc2c(=O)n1-c1ccc([N+](=O)[O-])cc1
measurement_target: OVCAR-8
qualitative_label: active
//
compound: COc1cccc(-c2cc(C(=O)Nc3ccc(Cl)cc3)nc(N)n2)c1
measurement_target: OVCAR-8
qualitative_label: inactive
//
compound: COc1cc(/C=C/C(=N\NC(N)=S)c2sc(NNC(C)=O)nc2C)ccc1O
measurement_target: OVCAR-8
qualitative_label: inactive
//
compound: CCOC(=O)c1c(N)sc2c1CC(C)CC2 (stereo not given)
measurement_target: OVCAR-8
qualitative_label: inactive
//
compound: Fc1ccc(C(OCCN2CC3CC2CN3)c2ccc(F)cc2)cc1 (stereo not given)
measurement_target: OVCAR-8
qualitative_label: inactive
//
compound: CNC(C)C(O)c1ccc2oc3cc(=O)c4ccccc4c-3nc2c1 (stereo not given)
measurement_target: OVCAR-8
qualitative_label: inactive
//
compound: COC(=O)C1=C(OC(=O)c2ccccc2)C(C(=O)OC)[C@]2(O)[C@@H](C(=O)OC)[C@H]1C[C@@H](c1ccccc1)[C@@H]2C(=O)OC (stereo not given in full)
measurement_target: OVCAR-8
qualitative_label: inactive
//
compound: O=C(CO[N+](=O)[O-])OCC(=O)c1ccccc1
measurement_target: OVCAR-8
qualitative_label: inactive
//
compound: COc1ccc2c(CCNS(=O)(=O)c3ccccc3)c(C(C)=O)[nH]c2c1[N+](=O)[O-]
measurement_target: OVCAR-8
qualitative_label: inactive
//
compound: CNC(=O)/C(=C/c1ccc(OC)cc1)c1cc(OC)c(OC)c(OC)c1
measurement_target: OVCAR-8
qualitative_label: inactive
//
compound: CP1(=O)CCCCC1
measurement_target: OVCAR-8
qualitative_label: inactive
//
compound: Clc1ccc(CCN2CCOCC2)c(Cl)c1
measurement_target: OVCAR-8
qualitative_label: inactive
//
compound: O=c1[nH]c(=O)n(C2OC(CO)C(O)C2O)cc1OCc1ccccc1 (stereo not given)
measurement_target: OVCAR-8
qualitative_label: inactive
//
compound: O=C1c2ccccc2-c2nc(-c3ccncc3)cc3c2c1nc1ccccc13
measurement_target: OVCAR-8
qualitative_label: inactive
//
compound: COc1c(C)c(OC)c(C(=O)CC(C)C)c(OC)c1C
measurement_target: OVCAR-8
qualitative_label: inactive
//
compound: Cc1ncc([N+](=O)[O-])n1CCNS(=O)(=O)CCCn1ncnc1[N+](=O)[O-]
measurement_target: OVCAR-8
qualitative_label: inactive
//
compound: CC(=O)OC1C(COC(N)=O)OC(n2c(-c3ccc(C)cc3)cc(-c3ccccc3)c(C#N)c2=O)C(OC(C)=O)C1OC(C)=O (stereo not given)
measurement_target: OVCAR-8
qualitative_label: inactive
//
compound: O=C(Cn1ccnc1[N+](=O)[O-])NCc1ccc(F)cc1
measurement_target: OVCAR-8
qualitative_label: inactive
//
compound: Cc1nc2c(=O)n(C)ncc2[nH]1
measurement_target: OVCAR-8
qualitative_label: inactive

Data provenance: ChEMBL document CHEMBL1201862
